# Experiment summary: In vivo pharmacokinetic testing of compounds in rats
# Condition info: rat; male SD rats, single oral dose 100 mg/kg, plasma; VX-150 dosed as prodrug, active form analysed
Short version: half-life at least 6 h is yes (1), less is no (0).

Qu. API: above_or_equal(metric=half-life, cutoff=6 h) for item Cc1cc(F)ccc1Oc1cc(C(F)(F)F)c(Cl)cc1C(=O)Nc1ccnc(OC[C@H](O)CO)c1 [Example 114]
Ans. yes (1)

Qu. Record Cc1cc(F)ccc1Oc1cc(C2CC2)c(C(F)(F)F)cc1C(=O)Nc1ccc(F)c(OC[C@H](O)CNC(=O)CO)c1 [Example 119] ; criterion: half-life no lower than 6 h. Met?
Ans. no (0)

Qu. Does the molecule Cc1cc(F)ccc1Oc1cc(C(F)(F)F)c(Cl)cc1C(=O)Nc1ccc(F)c(OC[C@H](O)CNC(=O)CO)c1 [Example 117] have recorded half-life that is 6 h or more?
Ans. no (0)

Qu. Tell me whether half-life is at least 6 h here: Cc1cc(F)ccc1Oc1cc(C(F)(F)F)c(Cl)cc1C(=O)Nc1cnnc(OC[C@H](O)CO)c1 [Example 116]
Ans. yes (1)

Qu. Textbook exercise: given the entry Cc1cc(F)ccc1Oc1cc(C2CC2)c(C(F)(F)F)cc1C(=O)Nc1cnnc(OC[C@H](O)CO)c1 [Example 112] , state whether its half-life is greater than or equal to 6 h.
Ans. yes (1)

Qu. Does half-life meet or surpass 6 h for Cc1cc(F)ccc1Oc1cc(C2CC2)c(C(F)(F)F)cc1C(=O)Nc1ccnc(OC[C@H](O)CO)c1 [Example 104] ?
Ans. no (0)
